Every entry's value here was drawn from paper PMC9482650.

# assayed-system: T1, RADIL, Q96JH8
# T1 sequence (Q96JH8 971-1071, limits assumed, looked up): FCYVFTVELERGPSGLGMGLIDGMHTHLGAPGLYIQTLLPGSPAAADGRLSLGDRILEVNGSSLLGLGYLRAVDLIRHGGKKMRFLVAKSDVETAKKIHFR
# assay-remarks: holdup assay
# Design: key: below the threshold = too weak to quantify, mostly under pKd 3.1 to 4
# measurement-parameters: plain residues with an end cap or a label only (N-terminal biotin on a linker: ado-ado)
readout-type: pKd

RKPKPSSSCC [RAB9A, P51151]    below the threshold
LSEFKAMDSI [CTNNA1, P35221]    below the threshold
LGRSTPQSEV [DGKH, Q86XP1]    below the threshold
QSARLWETSI [ADAM22, Q9P0K1]    3.71
